These data points were gathered from the supplement of paper PMC12455559.

assay: purified protein yield per well (BCA); higher = higher soluble expression
assay endpoint: purified protein yield per well (µg)
Just the number please, in µg, no unit attached.

1. SAQVTRQAAGSYARGPAPTLAGIRAALGPFAYSTVTVTAAQAGGAFGGGTIYYPDDTSQGTFGGVAAVPGYQSAEKAVAWLGPRLASQGFVVITIATNGLTDQPTARGKQLLGALDYLTAQSPAAVRQRLDPNRLAVTGHSMGGGGTLYAAWTRPSLKAAVPLAPWHTIKNWSGITVPTLVQGGTQDTTAQVGTFAEPIYQSLTGARERAYAEIADAAHGTFVRENPLIGALEVAWLKRFVDDDGRYEQFLCPAPADSELTEYRDSCPSS [DP009] : 165

Return reported purified protein yield per well; argument: AASPYERGPDPTEQTITAERGPFQVATATVPANSASGFNRGTIYYPTDTSQGTFGAVAIIPGFIEPESTMSWYGPRLASQGFVVFTLEPFSVLNFPDDRANQLLAALDYLTGSSSVRSRVDASRLAVMGHSMGGGGTLRAAEMRPSLQAAIPLAPWHLHGDWRNVRVPTMIQAADNDFIAGVGNHAQPFYQNLTNAPEKAYLLFENYGHMSWISANTPIAKYSIAWLKRYVDDDTRYSKFLCPAPGAPSSTFQEYRHTCPD [DP044] 28

----------
Each entry below lists one item and its recorded PET hydrolysis value.
test: PET hydrolysis, aromatic products released after 48 h (umol product/mg enzyme); higher = more PET depolymerization activity; conditions: substrate: cryPow; 40 °C; pH 6.5
Enter a number only.

1. ADNPYQRGPDPTPASIAADHGPFATAQTTIPKGNGLGGGIVYYPTDTSQGTFGAIAIAPGYGTEWRWYGWLGPRLASFGFVVVGIETNSLSDYADARADQLLAALDWLVTSSPVRDRVDRTRLAVGGHSMGGGGALVAATRRPSLRSAVGMAPYVPDGILRGTSVPTILFGGQADTTVTPAYLASAYATIPATVPRAYPEIAGEGHGFAAGGGGGNSGAFARVMMVWLKVFVDADTRYPPFLCPTLSNTSGISKYQASCPLGPGGTIPPPDTSRLANANAGRCLDASGAGTANGTKVILWTCNHGANQQWNRT [ESM139] : 1.5

Item under review: DDGYQRGPDPTEESIEAPRGTFEIGMAVVTRASADGFGGGTVYYPTDTSEGTFGAVAVSPGYSSSQAAIAWLGPRLASQGFVVFTIDTLSTSDSPTRRGDQVLAALSFLGRTELADRIDPDRLAVMGHSMGGGGSLEAAKDYPALQAIVPMTPWSVDKTFPEVTAPTLVIGAEDDVVARPRSHAEPIYESLPADGDKAYLELRDASHSAPSAPNTLIARYSLSWLKRYVDDDERYQQFLCPPPAVDDEISEYRSTCA [DP089] . Reported PET hydrolysis? 4

----------
assay: PET hydrolysis, aromatic products released after 48 h (umol product/mg enzyme); higher = more PET depolymerization activity; conditions: substrate: cryPow; 40 °C; pH 7.5
assay endpoint: PET hydrolysis
Returns: the value as a bare number; no unit string appended.

Which measured PET hydrolysis value corresponds to ADNPYQRGPDPTPQSISATTGPFATASVTVPRQGNFGGGVIYYPTDTSQGTFGAVAISPGLNGTWPGIAWLGPRLSSQGFVVFGIDTLGLNDSTASRGSQLLAALDYLTQTSSVRTRVDASRLAVAGHSMGGGGAFEAVLRRPTLKASIPNAPFFPGSAANVRVPTLITAMQNDSLVGQNRNAYNGIPAGVEKAYIELAGAGHNQIGQPTTAIARNWIPWLKIFVDNDARYHQFFCPTTNMSGLSQYLNTCPLTSATPPTSSPSAGPTTPGPTGPPPGGACAATYQTVNTWSGGYQGEMTVRAGNSAINGWTVRWTMGGGQISQVWNGTLVTGSGAAAVRNAPYNGALAAGATTTFGFISSGTPSATSLTCATP [ESM064] ? 74
